Tested on: Plasmodium falciparum
assay_procedure: Antiplasmodial activity against chloroquine-resistant Plasmodium falciparum W2/Indochina by [3H]hypoxanthine uptake
Assay type: functional, organism-based
condition_info: Plasmodium falciparum, W2/Indochina
observed_property: IC50 (nM)

compound: CN1CCC2c3ccccc3N3C2[C@@H]1C[C@@H](C1=CCOC1=O)C[C@@H]3O (stereo partly drawn)
result: 25900

compound: C/C=C1/CN2CCc3c([nH]c4ccccc34)[C@@H]2C[C@@H]1C1=CN2c3ccccc3[C@]34CCN5C/C(=C/CO)[C@H](C[C@H]53)[C@@H]([C@@H]1O)[C@H]24 [TETRADEHYDROLONGICAUDATINE Y]
result: 958

compound: C=C[C@H]1CN2CC[C@H]1C[C@H]2[C@H](O)c1ccnc2ccc(OC)cc12
result: 413

###

assay_procedure: Selectivity index, ratio of IC50 for human HCT116 cells to IC50 for chloroquine-resistant Plasmodium falciparum W2/Indochina
Assay type: toxicity, cell-based, HCT-116
condition_info: HCT116 cells versus Plasmodium falciparum W2/Indochina, read-out: Ratio IC50
Labelling field: enter 1.0 if recorded selectivity ratio is less than 100. Enter 0.0 if it equals or exceeds that cut-off.

molecule: C/C=C1/CN2CCc3c([nH]c4ccccc34)[C@@H]2C[C@@H]1C1=CN2c3ccccc3[C@@]34CCN5CC6=CCO[C@@H]1[C@@H]([C@H]23)[C@H]6C[C@H]54 [LONGICAUDATINE]
answer_label: 1.0
//
molecule: C/C=C1\CN2CC[C@]34c5ccccc5N5[C@@H]6O[C@H]([C@H]([C@H]53)[C@H]1C[C@H]24)N1c2ccccc2[C@]23CCN4C/C(=C/C)[C@H](C[C@H]42)[C@H]6[C@H]13 (stereo in doubt; 52) [MATOPENSINE]
answer_label: 1.0
//
molecule: CC[C@H]1CN2CCC3c4ccccc4NC3[C@H]2C[C@@H]1C[C@@H]1NCCc2c1[nH]c1ccccc21 (stereo not given in full) [OCHROLIFUANINE E]
answer_label: 1.0
//
molecule: C/C=C1\CN2CC[C@]34c5ccccc5N5[C@H]3[C@@H]([C@H]3O[C@@H]5[C@]5(OC)[C@@H]6N3c3ccccc3[C@@]63CCN6C/C(=C\C)[C@@H]5C[C@H]63)[C@H]1C[C@H]24
answer_label: 0.0
//
molecule: CC[C@H]1CN2CCC3c4ccc(O)c([C@@H]5CCCN5C)c4NC3[C@@H]2C[C@@H]1C[C@H]1c2[nH]c3ccccc3c2CCN1C (stereo not given in full) [ISOSTRYCHNOPENTAMINE]
answer_label: 1.0
//
molecule: CC[C@H]1CN2CCC3c4ccccc4NC3[C@@H]2C[C@@H]1C[C@H]1NCCc2c1[nH]c1ccccc21 (stereo not given in full) [OCHROLIFUANINE A]
answer_label: 1.0
//
molecule: C/C=C1\CN2CCC3c4ccccc4NC3[C@@H]2C[C@@H]1CC1=NCCc2c1[nH]c1ccccc21 (stereo not given in full) [DIHYDROUSAMBARENSINE]
answer_label: 0.0
//
molecule: C/C=C1/CN2CC[C@]34c5ccccc5N5C(=O)C([C@H]6C[C@]78c9ccccc9N9C(=O)C=C[C@@H]([C@H]97)[C@H]7C[C@@H]8N6C/C7=C/C)=C[C@H]([C@H]53)[C@H]1C[C@H]24 [SUNGUCINE]
answer_label: 1.0
//
molecule: O=C1C[C@@H]2OCC=C3CN4[C@@H](C5=C[C@@H]6[C@@H]7N(C5=O)c5ccccc5[C@@]75CCN7C/C(=C/CO)[C@@H]6C[C@H]75)C[C@]56c7ccccc7N1[C@H]5[C@@H]2[C@H]3C[C@H]46 [STRYCHNOGUCINE B]
answer_label: 0.0
//
molecule: C/C=C1/CN2[C@@H](C3=C[C@@H]4[C@@H]5N(C3=O)c3ccccc3[C@@]53CCN5C/C(=C/CO)[C@@H]4C[C@H]53)C[C@@]34c5ccccc5N5C(=O)CC=C([C@H]1C[C@H]23)[C@H]54
answer_label: 0.0

###

assay_procedure: Selectivity index, ratio of IC50 for human HCT116 cells to IC50 for moderately chloroquine-resistant Plasmodium falciparum FCB1-R/Colombia
Type: toxicity, cell-based, HCT-116
condition_info: HCT116 cells versus Plasmodium falciparum FCB1-R/Colombia, read-out: Ratio IC50
Attribute: selectivity ratio
observed_property: selectivity ratio

compound: CC[C@H]1CN2CCC3c4ccccc4NC3[C@@H]2C[C@@H]1C[C@H]1NCCc2c1[nH]c1ccccc21 (some centres undefined)
observed_property: selectivity ratio
result: 60.7
--
compound: C/C=C1/CN2[C@@H](C3=C[C@@H]4[C@@H]5N(C3=O)c3ccccc3[C@@]53CCN5C/C(=C/CO)[C@@H]4C[C@H]53)C[C@@]34c5ccccc5N5C(=O)CC=C([C@H]1C[C@H]23)[C@H]54
observed_property: selectivity ratio
result: 78.3
--
compound: O=C1C[C@@H]2OCC=C3CN4[C@@H](C5=C[C@@H]6[C@@H]7N(C5=O)c5ccccc5[C@@]75CCN7C/C(=C/CO)[C@@H]6C[C@H]75)C[C@]56c7ccccc7N1[C@H]5[C@@H]2[C@H]3C[C@H]46
observed_property: selectivity ratio
result: 28.3
--
compound: CC[C@H]1CN2CCC3c4ccccc4NC3[C@H]2C[C@@H]1C[C@@H]1NCCc2c1[nH]c1ccccc21 (some centres undefined)
observed_property: selectivity ratio
result: 8.12

###

In this section, each of the compounds is paired with its reported pIC50.
Tested on: Plasmodium falciparum
assay_procedure: Antiplasmodial activity against chloroquine-resistant Plasmodium falciparum FCB1-R/Colombia by [3H]hypoxanthine uptake
Type: functional, organism-based
condition_info: Plasmodium falciparum, FCB1-R/Colombia
pIC50: −log10 of the molar value.

compound: c1ccc2c(c1)C[C@H]1C3Nc4ccccc4C3CCN1C2 (stereo partly drawn)
pIC50: 4.89
//
compound: C=CC1CN2CC[C@@]34c5cc(C(C)C6=CN7CC[C@]89c%10ccccc%10N[C@H]8[C@@H](CO)[C@H]6C[C@H]79)ccc5N[C@@H]3[C@@H](CO)[C@@H]1C[C@@H]24 (stereo in doubt; 68)
pIC50: 4.89
//
compound: C/C=C1/CN2CCc3c([nH]c4ccccc34)[C@@H]2C[C@@H]1C1=CN2c3ccccc3[C@]34CCN5C/C(=C/C)[C@H](C[C@H]53)[C@@H]([C@@H]1O)[C@H]24
pIC50: 4.93

###

System: Plasmodium falciparum
assay_procedure: Antiplasmodial activity against chloroquine-resistant Plasmodium falciparum FCB1-R/Colombia by [3H]hypoxanthine uptake
Format: functional, organism-based
condition_info: Plasmodium falciparum, FCB1-R/Colombia
Label label 1 when IC50 is strictly below 500 nM; at or above that, label label 0.

molecule: C/C=C1/CN2CCc3c([nH]c4ccccc34)[C@@H]2C[C@@H]1C1CCC([C@H]2C[C@H]3c4[nH]c5ccccc5c4CCN3C/C2=C/C)C1 (stereo not given in full) [STRYCHNOFURANINE]
answer_label: label 0

molecule: C=C1c2[nH]c3ccccc3c2CCN2C[C@@H](CC)CC[C@H]12 [EPINGOUNIENSINE]
answer_label: label 0

molecule: C=C[C@H]1CN2CC[C@H]1C[C@H]2[C@H](O)c1ccnc2ccc(OC)cc12 [QUININE]
answer_label: label 1

molecule: C=C1c2[nH]c3ccccc3c2CCN2C[C@H](CC)CC[C@H]12 [NGOUNIENSINE]
answer_label: label 0

molecule: C/C=C1/CN2[C@@H](C3=C[C@@H]4[C@@H]5N(C3=O)c3ccccc3[C@@]53CCN5C/C(=C/CO)[C@@H]4C[C@H]53)C[C@@]34c5ccccc5N5C(=O)CC=C([C@H]1C[C@H]23)[C@H]54
answer_label: label 1

molecule: CC[C@H]1CN2CCC3c4ccccc4NC3[C@H]2C[C@@H]1C[C@@H]1NCCc2c1[nH]c1ccccc21 (stereo not given in full) [OCHROLIFUANINE E]
answer_label: label 0

molecule: CC[C@H]1CN2CCC3c4ccc(O)c([C@@H]5CCCN5C)c4NC3[C@@H]2C[C@@H]1C[C@H]1c2[nH]c3ccccc3c2CCN1C (stereo not given in full) [ISOSTRYCHNOPENTAMINE]
answer_label: label 1

molecule: C/C=C1\CN2CC[C@]34c5ccccc5N5[C@H]3[C@@H]([C@H]3O[C@@H]5[C@]5(OC)[C@@H]6N3c3ccccc3[C@@]63CCN6C/C(=C\C)[C@@H]5C[C@H]63)[C@H]1C[C@H]24
answer_label: label 0

molecule: O=C1C[C@@H]2OCC=C3CN4[C@@H](C5=C[C@@H]6[C@@H]7N(C5=O)c5ccccc5[C@@]75CCN7C/C(=C/CO)[C@@H]6C[C@H]75)C[C@]56c7ccccc7N1[C@H]5[C@@H]2[C@H]3C[C@H]46 [STRYCHNOGUCINE B]
answer_label: label 0

molecule: C/C=C1/CN2CCc3c([nH]c4ccccc34)[C@@H]2C[C@@H]1C1=CN2c3ccccc3[C@@]34CCN5CC6=CCO[C@@H]1[C@@H]([C@H]23)[C@H]6C[C@H]54 [LONGICAUDATINE]
answer_label: label 0
